# Assay Target: T1, PSMA (commercial, Sino Bio cat #15877-H07H) (UniProt Q04609 44-750)
# T1 construct: also called receptor
# T1 sequence (Q04609 44-750 limits assumed): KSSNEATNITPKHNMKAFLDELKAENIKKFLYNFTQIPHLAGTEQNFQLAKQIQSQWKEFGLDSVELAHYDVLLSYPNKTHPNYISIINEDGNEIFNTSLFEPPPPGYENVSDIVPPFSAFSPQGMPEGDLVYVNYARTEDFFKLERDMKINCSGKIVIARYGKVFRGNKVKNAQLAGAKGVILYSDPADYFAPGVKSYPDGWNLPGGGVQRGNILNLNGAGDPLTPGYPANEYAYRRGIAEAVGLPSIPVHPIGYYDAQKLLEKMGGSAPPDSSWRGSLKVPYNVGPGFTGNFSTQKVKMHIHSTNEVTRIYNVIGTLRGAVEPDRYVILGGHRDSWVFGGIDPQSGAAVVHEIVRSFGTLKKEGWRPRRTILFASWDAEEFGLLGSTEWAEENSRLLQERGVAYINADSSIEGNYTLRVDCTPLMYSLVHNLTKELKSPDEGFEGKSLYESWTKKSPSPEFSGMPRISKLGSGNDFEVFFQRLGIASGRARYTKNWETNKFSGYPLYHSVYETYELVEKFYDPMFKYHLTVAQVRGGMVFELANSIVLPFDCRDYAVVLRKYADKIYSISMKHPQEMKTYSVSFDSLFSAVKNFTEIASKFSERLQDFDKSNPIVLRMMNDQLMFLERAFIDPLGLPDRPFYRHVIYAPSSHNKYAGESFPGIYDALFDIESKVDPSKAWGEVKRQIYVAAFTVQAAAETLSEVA
# Measurement Notes: SDS-PAGE, lysate + PSMA, 3 h 37C
Property Name: crosslinking efficiency

Binder	crosslinking efficiency
C3-58FSY (VHH, not fully specified; FSY at 58, plus C-terminal His6; tested as cell lysate) VHH: QVQLQESGGGSVEAGGSLRLSCARSGWPYSTYSMNWFRQAPGKEREAVAGISSTMSGXIFAESKAGQFTISQDNAKNTVYLQMNNLKPEDTAIYYCAARRDYSLSSSSDDFDYWGQGTQVTVSS	> 50%

// field: crosslinking efficiency; key: C3-101FSY (VHH, not fully specified; FSY at 101, plus C-terminal His6) VHH: QVQLQESGGGSVEAGGSLRLSCARSGWPYSTYSMNWFRQAPGKEREAVAGISSTMSGIIFAESKAGQFTISQDNAKNTVYLQMNNLKPEDTAIYYCAARRXYSLSSSSDDFDYWGQGTQVTVSS ; value = < 50%

Ref: patent US20260263646A1
